Test system: Gerbillinae
Assay Text: In vitro inhibitory activity against lipid peroxidation in gerbils
Assay type: functional
Observed Property: IC50 (µM)
Report the value in µM with no unit label.

Recorded IC50, per entry:
# Compound, Readout Unit, Value Observed
rows = [
    ("CC(C)(C)N(O)c1ccc(C(=O)Nc2nccs2)cc1", "µM", 1.44),
    ("CC(C)(C)N(O)c1ccc(C(=O)Nc2ccccn2)cc1", "µM", 4.3),
]

## Input // IC50 lookup, key: `CC(C)(C)N(O)c1ccc(C(=O)NCc2ccccn2)cc1`
## Output 11.1

## Input Please look up its IC50: O=c1c2ccccc2[se]n1-c1ccccc1 [EBSELEN]
## Output 68.9
